# system: T1, recombinant human TfR (r human TfR: Sino Biological Inc.) (human, UniProt P02786 89-760)
# T1 construct: Bought product; also called r human TfR-ECD (Histag); hTfR; not shown: histidine tag attached to the N-terminus
# T1 sequence (P02786 89-760): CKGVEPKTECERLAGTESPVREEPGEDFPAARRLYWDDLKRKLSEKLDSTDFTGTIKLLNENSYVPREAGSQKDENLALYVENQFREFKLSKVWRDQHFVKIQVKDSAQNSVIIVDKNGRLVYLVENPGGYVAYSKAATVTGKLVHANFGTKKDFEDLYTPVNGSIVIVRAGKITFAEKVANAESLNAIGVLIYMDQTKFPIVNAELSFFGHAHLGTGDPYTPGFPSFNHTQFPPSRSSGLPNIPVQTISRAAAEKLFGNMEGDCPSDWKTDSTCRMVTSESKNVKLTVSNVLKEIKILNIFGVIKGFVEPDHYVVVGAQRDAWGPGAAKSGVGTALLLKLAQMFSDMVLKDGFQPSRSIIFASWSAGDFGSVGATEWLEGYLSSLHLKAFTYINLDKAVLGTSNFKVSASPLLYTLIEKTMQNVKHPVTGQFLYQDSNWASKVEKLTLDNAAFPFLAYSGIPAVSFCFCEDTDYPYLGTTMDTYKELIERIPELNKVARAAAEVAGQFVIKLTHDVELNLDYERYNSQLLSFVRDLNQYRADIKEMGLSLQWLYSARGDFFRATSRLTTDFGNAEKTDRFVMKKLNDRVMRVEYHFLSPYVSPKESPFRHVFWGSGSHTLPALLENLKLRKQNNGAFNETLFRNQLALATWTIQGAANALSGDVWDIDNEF
# measurement_description: BLI (Octet RED96), His-tagged TfR ECD loaded on Ni-NTA sensor, antibody as analyte
pKd: −log10 of the molar value.

binder | modifier_sign | pKd
anti-hTfR antibody No. 2 (antibody, V domains shown, Mouse hybridoma antibody purified on Protein G; also called mouse anti-hTfR antibody No. 2; product of Clone 2 line) VH: EVQLQESGAELVRPGVSVKISCKGSGYTFTDYVMHWVRQSHAKSLEWIGVISTYYGHGSYNQRFKGKATMTVDKSSSTAYLELVRLTSEDSAIYYCVRGGYGSSSLAGNFDVWGAGTTVTVSS VL: DIVLTQSPATLSVTPGDSVSLSCRASQSISNNLQWYQQKSHESPRLLIKYASQSISGIPSRFSGSGSGTDFTLSINSVETEDFGMYFCQQSNSWPRTFGAGTKLELKR | = | 10.95
anti-hTfR antibody No. 8 (antibody, V domains shown, Mouse hybridoma antibody purified on Protein G; also called mouse anti-hTfR antibody No. 8; product of Clone 8 line) VH: EVQLQESGPGLVAPSQSLSITCTVSGFSLTTYGVSWIRQPPGKGLEWLGIIWGDGSTNYRSALISRLSISKDNSKNQVFLKLNSLQTDDTATYYCAKPDDYWGQGTSVTVSS VL: DIVLTQSPAIMSASLGEEITLTCSASSSVSYMHWYQQKSGTSPKVLIYGTSNLASEVPSRFSGSGSGTFYSLTISSVEAEDAADYYCHQWSSYPWTFGGGTKLEIK | > | 12.00
anti-hTfR antibody No. 6 (antibody, V domains shown, Mouse hybridoma antibody purified on Protein G; also called mouse anti-hTfR antibody No. 6; product of Clone 6 line) VH: EVQLQESGPGLVAPSQSLSITCSVSGFSLSTYGVYWVRQPPGKGLEWLGIIWGDGSTNYHSALISRLTISKDNSKSQVFLKLNSLQTADTATYYCAKPDDVWGAGTTVTVSS VL: DIVLTQTPSSLSASLGERVSLTCRASQEISGYLSWLQQKPDGTIKRLIYAASTLDSGVPKRFSGSRSGSDYSLTISSLESEDFADYYCLQYSSYPRTFGGGTKLEIK | = | 9.02
anti-hTfR antibody No. 7 (antibody, V domains shown, Mouse hybridoma antibody purified on Protein G; also called mouse anti-hTfR antibody No. 7; product of Clone 7 line) VH: EVQLQESGGALVKPGGSLKVSCEASGITFRNYFMSWVRQTPEKRLEWVATISSAGGYTYYADSVKGRFTISRDNAGNTLYLQMSSLRSEDTAMYFCARQEVPYPYAMDYWGQGTSVIVSS VL: DIVLTQSPVIMSASLGEEITLTCSASSSVNYIHWYQQKSGTSPKVLIYQTSNLASGVPSRFSGSRSGTFYSLKISSVEAEDAADYYCHQWSSYPWTFGGGTKLEIK | = | 10.09
anti-hTfR antibody No. 5 (antibody, V domains shown, Mouse hybridoma antibody purified on Protein G; also called mouse anti-hTfR antibody No. 5; product of Clone 5 line) VH: EVQLQESGPELVKPGASVKMSCKASGYTFTNFVIHWVKQRPGQGLEWIGFFNPHKNGAEYNEKFQVKATLTSDKSSTTAYMELNSLTSEDSAVYYCARSFYYYSMDYWGQGTSVTVSS VL: DIVMTQTPAIMSASPGEKVTMTCSASSSISSIHWYQQKPGTSPKRWIYDTSTLASGVPVRFSGSGSGTSYSLTISSMEAEDAATYYCHQRSSYPTFGGGTKLEIK | = | 10.44

The measurements presented in this section are drawn from patent US20240262926A1.
